Assay: Quantitative High-Throughput drug screen in 47 multiple myeloma cell lines against the NCATS MIPE library collection: KMS20_JCRB cell viability assay (AID 1918973); further: nearly all actives have a fitted effect of over 45% in size
Settings: CellTiter-Glo ATP, 48 h; series mostly up to 45.8 µM
Inconclusive results are not listed. Activity calls are given as the source filed them. The call rests on the fitted dose curve; in most records, active means well fitted cell-killing curve with a large enough effect; inconclusive means small, poorly fitted or top-dose-only effect, or effect the other way; inactive means no such curve, though single readings can be large or run the other way.
Please reply with one of these outcomes: active, inactive

>>> category_label("CCCCCOC(=O)Nc1nc(=O)n([C@@H]2O[C@H](C)[C@@H](O)C2O)cc1F (stereo not given in full)")
"inactive"
>>> category_label("COc1nccc(-c2c(-c3ccc(F)cc3)ncn2C2CCNCC2)n1")
"inactive"
>>> category_label("CN[C@@H]1CN(c2ccc3c(=O)c(C(=O)O)cn(-c4nccs4)c3n2)C[C@@H]1OC")
"active"
>>> category_label("CNC1CCC(N(Cc2cccc(-c3ccncc3)c2)C(=O)c2sc3ccccc3c2Cl)CC1 (stereo not given)")
"active"

# outcome recorded in this test, key = "O=C(CC12CC3CC(CC(C3)C1)C2)Nc1cccc2nc(NCCNCCO)ccc12"
active

====

Assay: Quantitative High-Throughput drug screen in 47 multiple myeloma cell lines against the NCATS MIPE library collection: AMO1_DSMZ cell viability assay (AID 1918927; further: nearly all actives have a fitted effect of over 30% in size)
Conditions: AMO1 myeloma cells viability, CellTiter-Glo ATP luminescence, 48 h; series mostly up to 45.8 µM
Excerpt: PI: Beverly A. Mock Ph.D. Laboratory of Cancer Biology and Genetics, Center for Cancer Research, National Cancer Institute, National Institute of Health, Bethesda, Maryland […] 5; Detector; 425V; Luminescence; Viewlux PerkinElmer. […] 1. […] Briefly, the corresponding myeloma cell lines were screened in 1,536-well plates with 500 cells, 5-uL per well for inhibition of cell viability (assessed by measuring ATP levels with CellTiterGlo). […]
Results filed as inconclusive are left out. Calls of active or inactive are those of the source. Calls come from the whole dose curve; as a rule, active = well fitted cell-killing curve with a large enough effect; inconclusive = small, poorly fitted or top-dose-only effect, or effect the other way; inactive = no such curve, though single readings can be large or run the other way.
Hi! Could you answer with just one of these? active, inactive

// below: answered molecules
>>> category_label("COc1nc(C)cnc1NS(=O)(=O)c1cccnc1-c1ccc(-c2nnco2)cc1")
"inactive"
>>> category_label("COc1cc2ncn(-c3cc(OCc4ccccc4S(C)(=O)=O)c(C#N)s3)c2cc1OC")
"inactive"
>>> category_label("C[C@@]1(c2cc(-c3cncnc3)c(F)cc2F)CCSC(N)=N1")
"active"
>>> category_label("FC(F)(F)c1ccc(C=Cc2nc(COc3ccc(CCCCn4ccnn4)cc3)co2)cc1")
"active"
>>> category_label("COc1nccc(-c2c(-c3ccc(F)cc3)ncn2C2CCNCC2)n1")
"inactive"

# ---- query molecule ----
Which outcome did this test record for the molecule "COc1ccc2c(c1)c(C1=C(c3c[nH]c4ccccc34)C(=O)NC1=O)cn2CCCN(C)C" ?
active

====

Assay: Primary fluorescence-based thiol-reactive (MSTI) qHTS assay for identification of artifact compounds. (AID 1845221);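 further: thiol-reactive compounds lower the probe fluorescence signal; nearly all actives have a fitted effect of over 65% in size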
Details: MSTI thiol-reactivity probe, 1 h; series mostly up to 53.8 µM
Records with an inconclusive call do not appear. Activity calls are given as the source filed them. Calls come from the whole dose curve; as a rule, active = well fitted inhibition curve with a large enough effect; inconclusive = small, poorly fitted or top-dose-only effect; inactive = no such curve, though single readings can be large or run the other way.
Return exactly one item of active, inactive

Worked examples, 3 compounds total:
>>> category_label("CNc1nc(Nc2ccc(C(=O)N3CCOCC3)cc2OC)ncc1Cl")
"inactive"
>>> category_label("COc1ccc(-c2ccc3ncc4c(c3c2)n(-c2ccc(N3CCNCC3)c(C(F)(F)F)c2)c(=O)n4C)cn1")
"inactive"
>>> category_label("CN1CCC(COc2cnc(-c3cccc(Cn4nc(-c5cccc(C#N)c5)ccc4=O)c3)nc2)CC1")
"inactive"

Assay result, entry CN(C)CCOc1cc(-c2cn[nH]c2)ccc1NC(=O)C1COc2ccccc2O1 (stereo not drawn) — outcome?
inactive

Recorded test outcome, item "Cc1ccc2c(c1)c1c(n2CCc2ccc(C)nc2)CCN(C)C1"
inactive

Which outcome did this test record for the compound COc1ccc(-c2nc3ccc(C4=NNC(=O)CC4C)cc3[nH]2)cc1 (stereo not drawn) ?
inactive

Tell me the assay call for "CC(C)(OCc1nn(Cc2ccccc2)c2ccccc12)C(=O)O" please.
inactive

Test call for this compound, please: "NC(=O)c1noc([C@H](CCCC2CCCCC2)CC(=O)NO)n1"
inactive
